In this section, each of the binders is paired with its reported Raw MFI.
Molecular target: T1, human IL-2Rγ expressed on cells (NK-92, Jurkat) (human) (UniProt P31785)
T1 sequence (looked up): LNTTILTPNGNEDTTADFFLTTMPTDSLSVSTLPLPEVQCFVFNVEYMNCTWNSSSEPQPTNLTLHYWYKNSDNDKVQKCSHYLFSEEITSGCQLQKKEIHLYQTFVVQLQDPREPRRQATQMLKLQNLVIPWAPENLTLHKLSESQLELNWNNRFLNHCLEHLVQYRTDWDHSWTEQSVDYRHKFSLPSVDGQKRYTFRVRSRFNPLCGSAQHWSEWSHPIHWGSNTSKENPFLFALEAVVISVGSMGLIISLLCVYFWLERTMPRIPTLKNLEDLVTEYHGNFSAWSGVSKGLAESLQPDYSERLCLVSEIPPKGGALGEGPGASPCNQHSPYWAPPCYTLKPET
Test: flow cytometry on NK-92 cells (endogenous human IL-2Rg), antibody 10 ug/ml
The response must be a number in MFI with no trailing unit.

Example binders with recorded Raw MFI:
binder | Raw MFI [MFI]
H4H12900P (antibody, human IgG4 S228P, kappa, V domains shown) VH: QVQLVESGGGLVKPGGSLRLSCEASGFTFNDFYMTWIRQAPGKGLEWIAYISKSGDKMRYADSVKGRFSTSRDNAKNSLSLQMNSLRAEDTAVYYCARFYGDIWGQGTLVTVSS VL: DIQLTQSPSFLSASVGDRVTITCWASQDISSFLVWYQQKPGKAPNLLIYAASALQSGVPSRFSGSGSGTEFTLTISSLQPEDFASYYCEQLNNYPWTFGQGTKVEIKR | 4200
H4H12858P (antibody, human IgG4 S228P, kappa, V domains shown) VH: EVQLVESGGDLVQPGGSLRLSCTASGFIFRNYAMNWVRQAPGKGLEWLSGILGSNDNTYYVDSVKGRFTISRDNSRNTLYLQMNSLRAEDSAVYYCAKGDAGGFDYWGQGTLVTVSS VL: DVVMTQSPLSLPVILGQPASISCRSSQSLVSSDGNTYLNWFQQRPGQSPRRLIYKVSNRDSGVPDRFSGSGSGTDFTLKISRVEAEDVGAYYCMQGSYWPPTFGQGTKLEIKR | 228

Continue with the next binder.
[ask] Supply Raw MFI value. Item: H4H12874P (antibody, human IgG4 S228P, kappa, V domains shown) VH: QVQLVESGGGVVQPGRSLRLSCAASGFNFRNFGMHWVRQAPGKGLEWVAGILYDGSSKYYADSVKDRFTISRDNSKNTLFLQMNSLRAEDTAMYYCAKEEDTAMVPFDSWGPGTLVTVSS VL: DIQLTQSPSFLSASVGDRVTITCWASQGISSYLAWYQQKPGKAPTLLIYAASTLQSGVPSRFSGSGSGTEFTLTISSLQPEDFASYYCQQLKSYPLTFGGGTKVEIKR
[reply] 6580

FYI, the data here is from patent US20230279131A1.
